target: UniProt:Q14145; assay: Binding affinity to recombinant human Keap1 by SPR analysis
Sequence (Q14145 whole entry): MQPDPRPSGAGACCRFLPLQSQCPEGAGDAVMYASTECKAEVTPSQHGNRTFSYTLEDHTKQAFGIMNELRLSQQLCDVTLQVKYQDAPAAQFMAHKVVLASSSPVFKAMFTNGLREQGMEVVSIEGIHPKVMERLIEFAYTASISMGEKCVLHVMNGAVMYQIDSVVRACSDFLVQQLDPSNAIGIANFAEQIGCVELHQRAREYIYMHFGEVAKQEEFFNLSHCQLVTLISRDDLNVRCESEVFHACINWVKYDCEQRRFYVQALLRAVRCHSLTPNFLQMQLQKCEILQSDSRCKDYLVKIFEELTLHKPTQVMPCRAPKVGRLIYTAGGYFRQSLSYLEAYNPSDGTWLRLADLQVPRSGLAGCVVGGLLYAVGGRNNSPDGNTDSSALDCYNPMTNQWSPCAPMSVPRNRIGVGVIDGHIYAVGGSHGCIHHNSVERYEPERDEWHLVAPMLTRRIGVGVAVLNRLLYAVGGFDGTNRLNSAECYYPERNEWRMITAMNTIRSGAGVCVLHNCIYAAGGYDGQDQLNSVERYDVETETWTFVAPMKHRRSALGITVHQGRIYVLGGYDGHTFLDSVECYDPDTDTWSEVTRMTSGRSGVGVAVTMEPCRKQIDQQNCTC
The source made the active and inactive calls. No cut-off for these calls is given here.
// allowed return values: active, inactive

Input line: Recorded test call requested for CC(=O)O[C@H]1[C@@H](O)[C@](O)(CO)[C@@H]2[C@H](OC(C)=O)[C@@]3(O)[C@H](/C=C(CO)\C=C/[C@H](OC(C)=O)[C@@]2(C)[C@H]1OC(=O)CC(C)C)OC(=O)[C@@H]3C
Output line: inactive

Input line: Which outcome was assigned to C=C1CC[C@H](OC(C)=O)[C@@]2(C)[C@@H](OC(C)=O)C[C@@H](OC(C)=O)[C@]3(CO3)[C@@H]2[C@H](OC(C)=O)[C@]2(O)[C@@H](C)C(=O)O[C@H]2[C@H]1Cl in this test?
Output line: active

Input line: Which outcome was assigned to CC(=O)O[C@H]1[C@@H](OC(=O)CC(C)C)[C@](O)(CO)[C@@H]2[C@H](OC(C)=O)[C@@]3(O)[C@H](/C=C(CO)\C=C/[C@H](OC(C)=O)[C@@]2(C)[C@H]1OC(C)=O)OC(=O)[C@@H]3C in this test?
Output line: inactive

Input line: Short answer needed: outcome of this test for CC(=O)O[C@H]1[C@@H](OC(=O)CC(C)C)[C@](O)(CO)[C@@H]2[C@H](OC(C)=O)[C@@]3(O)[C@H](/C=C(CCl)\C=C/[C@H](OC(C)=O)[C@@]2(C)[C@H]1OC(C)=O)OC(=O)[C@@H]3C ?
Output line: inactive

Input line: What is the recorded call for this molecule in the test? C=C1/C=C\[C@H](OC(C)=O)[C@@]2(C)[C@@H](OC(C)=O)CC[C@]3(CO3)[C@@H]2[C@H](OC(C)=O)[C@]2(O)[C@@H](C)C(=O)O[C@H]2[C@H]1Cl
Output line: active

====

test system: BMDM; test: Anti-osteoclastogenesis activity in C57BL/6 mouse BMDM cells assessed as inhibition of RANKL-induced osteoclastogenesis at 10 uM incubated for 7 days in the presence of M-CSF by TRAP-staining based microscopic analysis relative to control; format: functional; conditions: C57BL/6, BMDM, 168 h, time 7 day
Classify by measured inhibition at 10 µM: fulfilled if it is equal to or exceeds 60%, not fulfilled if it is smaller.

Input line: Exam item: decide whether the reported inhibition at 10 µM for C=C1CC[C@H](OC(C)=O)[C@]2(C)[C@@H](OC(C)=O)C[C@@H](OC(C)=O)/C(CO)=C\[C@@H]3OC(=O)[C@H](C)[C@@]3(O)[C@@H](OC(C)=O)[C@@H]12 is at least 60%.
Output line: not fulfilled

Input line: hey, is inhibition at 10 µM for this one >= 60%? CC(=O)OC1[C@@H](OC(=O)CC(C)C)[C@]2(CO2)[C@@H]2[C@H](OC(C)=O)[C@@]3(O)[C@H](/C=C(CCl)\C=C/[C@H](OC(=O)COC(=O)CC(C)C)[C@@]2(C)[C@H]1OC(C)=O)OC(=O)[C@@H]3C (stereo partly specified)
Output line: fulfilled

Input line: Could you tell me if the measured inhibition at 10 µM of C=C1CC[C@H](OC(C)=O)[C@]2(C)[C@@H](OC(C)=O)CC/C(C)=C\[C@@H]3OC(=O)[C@H](C)[C@@]3(O)[C@@H](OC(C)=O)[C@@H]12 reaches 60% or more?
Output line: fulfilled

Input line: Identify whether the reported inhibition at 10 µM of the following molecule is 60% or greater: C=C1CC[C@H](OC(C)=O)[C@@]2(C)[C@@H](OC(C)=O)C[C@@H](OC(=O)CC(C)C)[C@]3(CO3)[C@@H]2[C@H](OC(C)=O)[C@]2(O)[C@@H](C)C(=O)O[C@H]2[C@H]1Cl [JUNCENOLIDE J]
Output line: fulfilled

Input line: Reported inhibition at 10 µM reaches at least 60% for C=C1CC[C@H](OC(C)=O)[C@]2(C)[C@@H](OC(C)=O)C[C@@H](OC(C)=O)/C(C(=O)OC)=C\[C@@H]3OC(=O)[C@H](C)[C@@]3(O)[C@@H](OC(C)=O)[C@@H]12 ?
Output line: not fulfilled

Input line: Could you please find out whether C=C1/C=C\[C@@H](OC(=O)COC(=O)CC(C)C)[C@@]2(C)[C@@H](OC(C)=O)[C@@H](OC(C)=O)[C@@H](OC(=O)CC(C)C)[C@]3(CO3)[C@@H]2[C@H](OC(C)=O)[C@]2(O)[C@@H](C)C(=O)O[C@H]2C1Cl (stereo partly specified) has inhibition at 10 µM that meets 60% or exceeds it?
Output line: fulfilled

Input line: Please check the record CC(=O)O[C@H]1[C@@H](O)[C@](O)(CO)[C@@H]2[C@H](OC(C)=O)[C@@]3(O)[C@H](/C=C(CO)\C=C/[C@H](OC(C)=O)[C@@]2(C)[C@H]1OC(=O)CC(C)C)OC(=O)[C@@H]3C and state if its inhibition at 10 µM is at or above 60%.
Output line: not fulfilled

Input line: Is the recorded value of inhibition at 10 µM equal to or greater than 60% for this molecule? CC(=O)O[C@H]1CC[C@](O)(CO)[C@@H]2[C@H](OC(C)=O)[C@@]3(O)[C@H](/C=C(CO)\C=C/[C@H](OC(=O)COC(=O)CC(C)C)[C@@]12C)OC(=O)[C@@H]3C
Output line: not fulfilled

Input line: # check: inhibition at 10 µM of C=C1/C=C/[C@H](OC(C)=O)[C@@]2(C)[C@@H](OC(C)=O)C[C@@H](OC(=O)CC(C)C)[C@]3(CO3)[C@@H]2[C@H](OC(C)=O)[C@]2(O)[C@@H](C)C(=O)O[C@H]2[C@H]1Cl [GEMMACOLIDE I] is greater than or equal to 60%
Output line: fulfilled

Input line: Given the entry CC(=O)O[C@H]1/C=C\C(CO)=C/[C@@H]2OC(=O)[C@H](C)[C@@]2(O)[C@@H](OC(C)=O)[C@H]2[C@@]3(CO3)[C@H](OC(C)=O)C[C@H](OC(=O)CC(C)C)[C@]12C , answer whether its inhibition at 10 µM meets or surpasses 60%.
Output line: fulfilled

Input line: Dear colleague, could you confirm whether CC(=O)O[C@H]1/C=C\C(COC(=O)CC(C)C)=C/[C@@H]2OC(=O)[C@H](C)[C@@]2(O)[C@@H](OC(C)=O)[C@H]2[C@@]3(CO3)[C@H](OC(=O)CC(C)C)C[C@H](OC(C)=O)[C@]12C has inhibition at 10 µM at or above 60%?
Output line: not fulfilled

====

assay: Cytotoxicity against C57BL/6 mouse BMDM cells incubated for 48 hrs by MTT assay; type: toxicity, cell-based; conditions: BMDM cells (bone marrow-derived macrophages)
property.label: CC50 at 48 h

Record C=C1CC[C@H](OC(C)=O)[C@]2(C)[C@@H](OC(C)=O)C[C@@H](OC(C)=O)/C(CO)=C\[C@@H]3OC(=O)[C@H](C)[C@@]3(O)[C@@H](OC(C)=O)[C@@H]12 , field CC50 at 48 h: > 50 µM

Looking up CC(=O)O[C@H]1/C=C\C(CCl)=C/[C@@H]2OC(=O)[C@H](C)[C@@]2(O)[C@@H](OC(C)=O)[C@H]2[C@@]3(CO3)[C@H](OC(C)=O)C[C@H](OC(=O)CC(C)C)[C@]12C , I see its CC50 at 48 h listed as > 50 µM

Query C=C1CC[C@H](OC(C)=O)[C@@]2(C)[C@@H](OC(C)=O)C[C@@H](OC(C)=O)[C@]3(CO3)[C@@H]2[C@H](OC(C)=O)[C@]2(O)[C@@H](C)C(=O)O[C@H]2[C@H]1Cl yields CC50 at 48 h of > 50 µM

// field: CC50 at 48 h; key: C=C1CC[C@H](OC(C)=O)[C@]2(C)[C@@H](OC(C)=O)C[C@@H](OC(C)=O)/C(C(=O)OC)=C\[C@@H]3OC(=O)[C@H](C)[C@@]3(O)[C@@H](OC(C)=O)[C@@H]12 ; value = > 50 µM

Looking up C=C1[C@H](Cl)[C@@H]2OC(=O)[C@H](C)[C@]23O[C@]1(O)C[C@H](OC(C)=O)[C@@]1(C)[C@@H](OC(C)=O)C[C@@H](OC(=O)CC(C)C)[C@]2(CO2)[C@@H]1[C@@H]3OC(C)=O , I found its CC50 at 48 h recorded as > 50 µM

According to the records, this compound CC(=O)O[C@H]1/C=C\C(CO)=C/[C@@H]2OC(=O)[C@H](C)[C@@]2(O)[C@@H](OC(C)=O)[C@H]2[C@@](O)(CO)[C@H](O)[C@H](OC(=O)CC(C)C)[C@H](OC(C)=O)[C@]12C displays CC50 at 48 h of > 50 µM

The recorded CC50 at 48 h for entry C=C1[C@H]2O[C@]3([C@@H](C)C(=O)O[C@H]3[C@H]1Cl)[C@@H](OC(C)=O)[C@H]1[C@@](O)(CCl)CC[C@H](OC(C)=O)[C@]1(C)[C@@H](OC(C)=O)[C@@H]2OC(C)=O equals > 50 µM

The reported value for CC(=O)O[C@H]1[C@@H](O)[C@](O)(CO)[C@@H]2[C@H](OC(C)=O)[C@@]3(O)[C@H](/C=C(CO)\C=C/[C@H](OC(C)=O)[C@@]2(C)[C@H]1OC(=O)CC(C)C)OC(=O)[C@@H]3C in terms of CC50 at 48 h is > 50 µM

// CC50 at 48 h value for CC(=O)O[C@H]1/C=C\C(CCl)=C/[C@@H]2OC(=O)[C@H](C)[C@@]2(O)[C@@H](OC(C)=O)[C@H]2[C@@]3(CO3)[C@H](OC(=O)CC(C)C)C[C@H](OC(C)=O)[C@]12C : > 50 µM

Sure, the documented CC50 at 48 h for C=C1[C@H](Cl)[C@@H]2OC(=O)[C@H](C)[C@]23O[C@]1(O)C[C@H](OC(C)=O)[C@@]1(C)[C@@H](OC(C)=O)C[C@@H](OC(C)=O)[C@]2(CO2)[C@@H]1[C@@H]3OC(C)=O is > 50 µM

Query C=C1[C@H](OC(C)=O)C[C@H](OC(C)=O)[C@@]2(C)[C@@H](OC(C)=O)C[C@@H](OC(C)=O)[C@]3(CO3)[C@@H]2[C@H](OC(C)=O)[C@]2(O)[C@@H](C)C(=O)O[C@H]2[C@H]1Cl yields CC50 at 48 h of > 50 µM

For record C=C1CC[C@H](OC(C)=O)[C@]2(C)[C@@H](OC(C)=O)C[C@@H](OC(C)=O)/C(COC(=O)CC(C)C)=C\[C@@H]3OC(=O)[C@H](C)[C@@]3(O)[C@@H](OC(C)=O)[C@@H]12 the listed CC50 at 48 h is > 50 µM

Entry under test: CC(=O)O[C@H]1/C=C\C(COC(=O)CC(C)C)=C/[C@@H]2OC(=O)[C@H](C)[C@@]2(O)[C@@H](OC(C)=O)[C@H]2[C@@]3(CO3)[C@H](OC(=O)CC(C)C)C[C@H](OC(C)=O)[C@]12C . Its CC50 at 48 h was > 50 µM

// CCOCC1=C/[C@@H]2OC(=O)[C@H](C)[C@@]2(O)[C@@H](OC(C)=O)[C@H]2[C@@]3(CO3)[C@H](OC(C)=O)C[C@H](OC(C)=O)[C@]2(C)[C@@H](OC(C)=O)/C=C\1 : CC50 at 48 h value = > 50 µM

The compound listed as CC(=O)OC1[C@@H](OC(=O)CC(C)C)[C@]2(CO2)[C@@H]2[C@H](OC(C)=O)[C@@]3(O)[C@H](/C=C(CCl)\C=C/[C@H](OC(=O)COC(=O)CC(C)C)[C@@]2(C)[C@H]1OC(C)=O)OC(=O)[C@@H]3C (stereo partly drawn) shows CC50 at 48 h equal to > 50 µM

CC50 at 48 h reported for this compound CCOCC1=C/[C@@H]2OC(=O)[C@H](C)[C@@]2(O)[C@@H](OC(C)=O)[C@H]2[C@@]3(CO3)[C@H](OC(=O)CC(C)C)C[C@H](OC(C)=O)[C@]2(C)[C@@H](OC(C)=O)/C=C\1 : > 50 µM

Input C=C1CC[C@H](OC(=O)CC(C)C)[C@]2(C)[C@@H](OC(C)=O)C[C@@H](OC(C)=O)/C(C)=C\[C@@H]3OC(=O)[C@H](C)[C@@]3(O)[C@@H](OC(C)=O)[C@@H]12 . Output CC50 at 48 h: > 50 µM

Note to self: CC50 at 48 h recorded for C=C1/C=C\[C@@H](OC(=O)COC(=O)CC(C)C)[C@@]2(C)[C@@H](OC(C)=O)[C@@H](OC(C)=O)[C@@H](OC(=O)CC(C)C)[C@]3(CO3)[C@@H]2[C@H](OC(C)=O)[C@]2(O)[C@@H](C)C(=O)O[C@H]2C1Cl (stereo partly drawn) was > 50 µM
